# IC50 listing for each entry below
test system: MCF7; test: Single drug treatments, viability/toxicity; type: cell-based; settings: Homo sapiens, MCF7, read-out: MCF7 IC50
ASSAY ENDPOINT: IC50

- COMPOUND: "CCN(CC)CCCC(C)Nc1ccnc2cc(Cl)ccc12 (centres unmarked)"
  SYSTEM UNDER TEST: "MCF7"
  RESULT: "> 25 µM"
- COMPOUND: "O=P1(N(CCCl)CCCl)NCCCO1 (centres unmarked) [cyclophosphamide]"
  SYSTEM UNDER TEST: "MCF7"
  RESULT: "> 25 µM"

* * *

system: MCF7; assay: Single drug treatments, viability/toxicity; type: cell-based; conditions: retest n ≥ 3; two-way ANOVA vs allopurinol; concentrations up to 3.84 µM

- COMPOUND: "C[C@]12CC[C@@H]3c4ccc(O)cc4C[C@@H](CCCCCCCCC[S+]([O-])CCCC(F)(F)C(F)(F)F)[C@H]3[C@@H]1CC[C@@H]2O (some centres unmarked) [fulvestrant]"
  reduction of viability of MCF7: "also targeted MCF7"
- COMPOUND: "COc1cccc2c1C(=O)c1c(O)c3c(c(O)c1C2=O)C[C@@](O)(C(=O)CO)C[C@@H]3O[C@H]1C[C@H](N)[C@H](O)[C@H](C)O1 [doxorubicin]"
  reduction of viability of MCF7: "also targeted MCF7"
